Target: recombinant GST-tagged MDM2 / p53 peptide (Homo sapiens)
Sequence (Q00987 whole entry): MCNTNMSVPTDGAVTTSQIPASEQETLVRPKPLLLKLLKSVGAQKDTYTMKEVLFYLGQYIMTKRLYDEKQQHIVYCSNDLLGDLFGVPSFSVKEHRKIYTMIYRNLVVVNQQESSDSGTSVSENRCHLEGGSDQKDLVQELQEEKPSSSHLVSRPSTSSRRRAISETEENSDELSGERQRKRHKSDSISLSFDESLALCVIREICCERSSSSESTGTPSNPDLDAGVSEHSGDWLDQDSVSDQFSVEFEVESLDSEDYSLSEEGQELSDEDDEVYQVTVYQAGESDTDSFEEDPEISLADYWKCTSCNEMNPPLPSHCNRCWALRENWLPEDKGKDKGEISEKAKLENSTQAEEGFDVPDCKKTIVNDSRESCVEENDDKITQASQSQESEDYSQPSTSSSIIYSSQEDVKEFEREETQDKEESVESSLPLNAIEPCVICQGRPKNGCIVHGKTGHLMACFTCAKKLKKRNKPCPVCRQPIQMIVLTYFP
Assay: HTRF assay of inhibition of the p53-MDM2 interaction
Details: GST-MDM2 and biotinylated p53 peptide, 37° C. 1 h
Protocol: The ability of the compounds to inhibit the interaction between p53 and MDM2 proteins was measured by an HTRF (homogeneous time-resolved fluorescence) assay in which recombinant GST-tagged MDM2 binds to a peptide that resembles the MDM2-interacting region of p53 (Lane et al.). […]
Give IC50 for every item shown.
Hi! Could you send only the number? It should be in nM, unit omitted.

Request body: readout IC50, system recombinant GST-tagged MDM2 / p53 peptide (Homo sapiens), query CCOc1cc(C(F)(F)F)ccc1C1=NC(c2ccc(Cl)cc2)C(c2ccc(Cl)cc2)N1C(=O)N1CCN(S(=O)(=O)C(C)C)CC1 (centres unmarked) . Return the value.
100

Also need CCOc1cc(C(F)(F)F)ccc1C1=NC(c2ccc(Cl)cc2)C(c2ccc(Cl)cc2)N1C(=O)N(C)c1ccccn1 (centres unmarked) , thanks.
4260

Also need CCOc1cc(C(F)(F)F)ccc1C1=NC(c2ccc(Cl)cc2)C(c2ccc(Cl)cc2)N1C(=O)N1CCC(NCC(=O)N(C)CCC#N)CC1 (centres unmarked) , thanks.
21

Also need CCOc1cc(C(F)(F)F)ccc1C1=NC(c2ccc(Cl)cc2)C(c2ccc(Cl)cc2)N1C(=O)N1CCC(n2c(=O)[nH]c3ccccc32)CC1 (centres unmarked) , thanks.
800

Also need CCOc1cc(C(F)(F)F)ccc1C1=NC(c2ccc(Cl)cc2)C(c2ccc(Cl)cc2)N1C(=O)N1CCC(C(=O)OC)CC1 (centres unmarked) , thanks.
1740
